Tested on: TAK1;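 further: KINOMEscan kinase panel screen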
Construct: gene MAP3K7
Conditions: concentration: 1 μM, replicates: in singlicate; n = 1
Listing of entries alongside the reported %Inh.
Supply the numeric figure in %, leaving out any unit text.

Here are 2 molecules together with their reported answers.
INSERT INTO measurements (molecule, target_of_assay, unit_abbrev, number) VALUES
  ('Cl.Cl.NC(CNC(=O)c1cc(Br)c(-c2ccnc3[nH]ccc23)s1)c1ccccc1 (stereo not drawn)', 'TAK1', '%', 36),
  ('CCn1cnc2c(NCc3ccccc3)ncnc21', 'TAK1', '%', 0);

// query Query: %Inh; subject: O=C(Nc1n[nH]c2nc(-c3ccccc3)ccc12)C1CC1
// result 0

// query Query: %Inh; subject: Cn1cc(-c2ccc3c(c2)CCN3C(=O)Cc2cc(F)cc(C(F)(F)F)c2)c2c(N)ncnc21
// result 39

// query Query: %Inh; subject: COc1cccc2c(-c3ccncc3)c(-c3ccc(F)cc3)nn12
// result 0

// query Query: %Inh; subject: Nc1ncc(-c2ccc3nccc(-c4ccncc4)c3c2)cc1S(=O)(=O)N1CCCCC1
// result 14

// query Query: %Inh; subject: CC(C)NCC(Cc1ccccc1)NC(=O)c1cc(Br)c(-c2ccnc3[nH]ccc23)s1.Cl.Cl (stereo not drawn)
// result 0

// query Query: %Inh; subject: CCOc1nccc(-c2c(-c3ccc(F)cc3)ncn2C2CCNCC2)n1
// result 34
